experimental-system: MERTK (UniProt Q12866)
Sequence (Q12866 whole entry, looked up): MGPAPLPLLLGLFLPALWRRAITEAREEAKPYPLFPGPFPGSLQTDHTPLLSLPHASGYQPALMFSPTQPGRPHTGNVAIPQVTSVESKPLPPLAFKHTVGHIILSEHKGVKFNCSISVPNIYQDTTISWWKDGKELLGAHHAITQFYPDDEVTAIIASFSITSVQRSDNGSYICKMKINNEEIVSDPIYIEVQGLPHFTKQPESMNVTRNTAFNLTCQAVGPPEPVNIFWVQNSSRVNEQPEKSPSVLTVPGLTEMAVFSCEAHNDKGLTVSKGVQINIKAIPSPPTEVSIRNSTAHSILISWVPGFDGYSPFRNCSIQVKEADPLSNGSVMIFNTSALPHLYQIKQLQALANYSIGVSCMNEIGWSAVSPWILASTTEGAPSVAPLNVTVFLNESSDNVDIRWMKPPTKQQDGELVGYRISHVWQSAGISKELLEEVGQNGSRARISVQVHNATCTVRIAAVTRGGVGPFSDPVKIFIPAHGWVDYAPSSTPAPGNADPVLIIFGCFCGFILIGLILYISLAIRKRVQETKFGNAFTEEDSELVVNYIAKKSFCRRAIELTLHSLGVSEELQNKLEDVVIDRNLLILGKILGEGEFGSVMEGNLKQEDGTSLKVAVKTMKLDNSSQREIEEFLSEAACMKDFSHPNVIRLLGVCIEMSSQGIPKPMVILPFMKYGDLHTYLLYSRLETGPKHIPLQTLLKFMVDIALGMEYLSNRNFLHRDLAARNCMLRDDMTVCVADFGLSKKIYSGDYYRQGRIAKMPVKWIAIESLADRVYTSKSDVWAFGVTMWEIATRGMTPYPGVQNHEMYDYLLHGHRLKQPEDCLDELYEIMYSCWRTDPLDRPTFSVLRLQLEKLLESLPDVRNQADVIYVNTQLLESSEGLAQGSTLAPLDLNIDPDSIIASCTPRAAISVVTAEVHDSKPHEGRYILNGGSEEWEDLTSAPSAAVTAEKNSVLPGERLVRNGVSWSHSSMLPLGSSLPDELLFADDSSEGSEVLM
protocol-details: phosphorylation enrichment, bacterial display (enrichment ratio); higher = better substrate or ligand; peptides without Tyr show the background
The label depends only on phosphorylation enrichment: Condition met if it is at least 0.5, Condition not met if it is smaller.

| sequence-data | answer-label |
| --- | --- |
| SRPHLYGTPSR [ADGRE2_Y670] | Condition met |
| CTTIHNNFMCN [TP53_Y234_Y234N_YF] | Condition not met |
| LPSKDYAEVGR [HP_Y272] | Condition met |
| VLTSKYPGGGG [HBA1_Y141_R142P] | Condition not met |
| DLQDEYDFKCK [STAT1_Y170] | Condition met |

---

experimental-system: Hck (UniProt P08631)
Sequence (P08631 whole entry, looked up): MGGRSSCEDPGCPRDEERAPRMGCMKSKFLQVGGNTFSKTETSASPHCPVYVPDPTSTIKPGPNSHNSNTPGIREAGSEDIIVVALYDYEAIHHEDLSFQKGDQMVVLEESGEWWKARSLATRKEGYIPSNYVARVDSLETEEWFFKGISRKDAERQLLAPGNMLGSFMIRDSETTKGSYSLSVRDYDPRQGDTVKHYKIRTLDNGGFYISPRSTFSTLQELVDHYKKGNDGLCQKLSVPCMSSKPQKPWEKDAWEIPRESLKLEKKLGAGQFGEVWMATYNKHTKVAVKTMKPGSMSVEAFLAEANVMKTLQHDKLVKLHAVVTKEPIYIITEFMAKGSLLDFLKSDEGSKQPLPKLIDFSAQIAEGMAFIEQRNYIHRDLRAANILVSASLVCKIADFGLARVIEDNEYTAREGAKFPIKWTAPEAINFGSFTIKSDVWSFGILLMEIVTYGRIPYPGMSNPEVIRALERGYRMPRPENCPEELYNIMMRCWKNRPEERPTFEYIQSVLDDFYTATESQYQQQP
protocol-details: phosphorylation enrichment, bacterial display (enrichment ratio); higher = better substrate or ligand; peptides without Tyr show the background

| sequence-data | phosphorylation enrichment |
| --- | --- |
| MYQVQYNSSVD [LRFN1_Y458] | 0.505 |
| SKEPYYVHCIK [MYO1D_Y586_R588H] | 0.557 |
| GFPVRYTDVSN [DNMT3B_Y815_H814R] | 0.451 |
| KLNNEHLELNY [MME_Y497_Y497H] | 0.421 |
| KLSHLYQDHMQ [WNT5A_Y86_C83S] | 0.455 |
| QYPDIYAREEV [CRX_Y67_V66I] | 2.6 |
| PYGQWYESHYA [RPS8_Y113_R110G] | 5.96 |
| RGEAVYSRDCV [XPC_Y676] | 2.93 |
| PLGPLYASSNT [INSR_Y992_P997T] | 3.67 |
| LGNFNYEQRGA [API5_Y497] | 0.485 |
| RLLVVYPWTKR [HBB_Y36_Q40K] | 0.547 |
| GFFDLYGGEKF [PTPN11_Y66_D61G_YF] | 3.85 |
| SRIWVYNHYRW [BRCA2_Y2621] | 0.442 |
| VYSSDYFSFVL [USP24_Y2138] | 1.95 |
| TESNNYIFKTL [FAM83B_Y637_YF] | 0.643 |
| TSFSGYRFHRH [NKAPL_Y94_YF] | 0.515 |
| GTFVIYVRFGG [FLNB_Y1687_YF] | 0.433 |
| PLLTDYSPQLQ [OTC_Y345_S340P] | 0.951 |
| EQLGEYKFQNA [ALB_Y425] | 0.415 |
| VSSPKYGGDDE [TMCC2_Y473_S475G] | 0.429 |
| DDYDLYGGEKF [PTPN11_Y66_Y62D] | 2.25 |
| EEGNPYYSGAR [MCCC2_Y520_S523G] | 1.01 |
| RGVTRYIFNRE [HLA-DQB1_Y62_Y58G_YF] | 1.08 |
| DGFTDYAEFAK [MCFD2_Y138_I136T_YF] | 0.954 |
| FPPDGYSRHFE [CTNND1_Y213_YF] | 0.408 |
| FMYKVYSDPQP [FGFR1_Y280_C277Y] | 0.569 |
| CTTTHYNFMCN [TP53_Y234_I232T_YF] | 0.469 |
| ESFRLYPPVPQ [CYP4B1_Y377] | 0.415 |
| AVLSLYASDRT [ACTA1_Y145_G148D] | 0.538 |
| SSMSDYNPLEK [MYOC_Y479_I477S] | 0.525 |
| LKDEDYLKDIV [HAUS3_Y582] | 0.787 |
| TSSAGYRRTPS [ABI1_Y333_G331A] | 0.446 |
| SLMNQYVNKKF [RAB7A_Y28] | 0.427 |
| RLSVDYSKKSK [TUBA3E_Y161] | 0.442 |
| MFRVQYNSSVD [LRFN1_Y458_Q455R_YF] | 0.406 |
| KIVFVYVKKRS [DNAI2_Y7_E2K_YF] | 0.449 |
| SVTCTYSPALH [TP53_Y126_N131H] | 0.556 |
| CGTPTCLAPEV [CHEK2_Y390_Y390C] | 0.436 |
| GLPINYTTRRI [LAMA2_Y2894] | 0.569 |
| NQILPYIEELV [PPP2R1B_Y341_K343E] | 0.568 |
| LLQAEYWHDPI [PPT1_Y185_V181L] | 0.667 |
| EQSNPYMVLDI [ROCK2_Y1197] | 1.38 |
| LPKDLYLISQM [LARP4_Y141_S137P] | 0.891 |
| RPFFLYVAFHN [SGSH_Y174_D179N] | 0.327 |
| HVIKLYGACSQ [RET_Y791] | 0.661 |
| TIQSMYGCDVG [HLA-B_Y123_L119I] | 0.502 |
| TQKLAYMELQQ [CENPF_Y700] | 0.52 |
| FKEVVYQAMEE [TACC3_Y684_E680K] | 1.66 |
| SVIVPYEPPEV [TP53_Y220_V217I] | 0.517 |
| FGAHNHHPLPV [OAT_Y55_Y55H_YF] | 0.457 |
| GIVEDYRPPLF [ACVRL1_Y421_F425L_YF] | 0.343 |
| HCHEGYILHGA [SVEP1_Y2921] | 0.827 |
| ANNPLYKEVTS [ITGB3_Y773_A776V] | 0.551 |
| QRIHDYFEHRF [HCN4_Y554_YF] | 0.527 |
| LMLVLYGRIFL [HTR1A_Y215_R220L] | 0.654 |
| IKETHYMVDKC | 0.448 |
| LEQGEYALRSH [HADHB_Y244_D242G] | 0.697 |

---

experimental-system: Grb2 SH2 (UniProt P62993)
Sequence (P62993 whole entry, looked up): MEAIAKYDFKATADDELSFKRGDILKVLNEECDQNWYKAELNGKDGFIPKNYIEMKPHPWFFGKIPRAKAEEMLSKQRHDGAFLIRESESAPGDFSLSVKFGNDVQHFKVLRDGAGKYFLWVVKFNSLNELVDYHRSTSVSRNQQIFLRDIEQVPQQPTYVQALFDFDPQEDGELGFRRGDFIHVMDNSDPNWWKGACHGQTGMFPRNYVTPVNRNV
protocol-details: SH2 binding enrichment of the phosphorylated peptide, bacterial display (enrichment ratio); higher = better substrate or ligand; peptides without Tyr show the background
The label depends only on SH2 binding enrichment: MET if it is at least 1, NOT MET if it is smaller.

| sequence-data | answer-label |
| --- | --- |
| KSFDMYSGDVM [FAM3D_Y122_A118S] | NOT MET |
| TDEYEYDELIV [TGM1_Y136] | MET |
| LDFNEYFRGLN [HPRT1_Y198_D201G_YF] | MET |
| AVARPYHIQKW [ACSBG1_Y677_A673V] | MET |
| QSPQLYKQLCI [DARS1_Y253_M256L] | NOT MET |
| CERFSYYGMKA [SLC15A2_Y60] | NOT MET |
| KLIETCFSKNF [PLP1_Y50_Y50C_YF] | NOT MET |
| VYPATYHPDHW [EFCAB12_Y544] | MET |
| QRIHDYFEHRF [HCN4_Y554_YF] | NOT MET |
| NPQKSYFILLF [WAS_Y83_R86L_YF] | MET |
| KKIMGYSIRTI [IDS_Y490_I485K] | MET |
| EAIAKYDLKAT [GRB2_Y7_F9L] | NOT MET |

---

Examples of sequences with documented SH2 binding enrichment follow.
experimental-system: c-Src SH2
protocol-details: SH2 binding enrichment of the phosphorylated peptide, bacterial display (enrichment ratio); higher = better substrate or ligand; peptides without Tyr show the background
measurement-kind: SH2 binding enrichment

| sequence-data | numeric-readout |
| --- | --- |
| CTTILYNFMCN [TP53_Y234_H233L_YF] | 1.79 |
| SASRSYSRSRS [SRRM4_Y549] | 0.424 |
| IYETDYYRKGG [INSR_Y1189] | 0.59 |
| PAGSGYPAYLG [ATP6V1A_Y374_D371G] | 0.396 |
| YDDGKYVYVVT [RPS6KA3_Y488] | 0.595 |
| PGAPAYRVLME [MYO5A_Y1245] | 0.422 |
| TVSTRYTQPQP [SARG_Y259] | 0.81 |
| DEDYLYREELA [POR_Y575] | 0.501 |
| ALKKPYSVLYK [RPF2_Y59_G60S] | 1.38 |
| FRDALYKFIVD [PHEX_Y250_M253I_YF] | 1.04 |
| GESQGYDIMEA [MSH2_Y863_P868A] | 4.32 |
| KKIMGYSIRTI [IDS_Y490_I485K] | 1.32 |
| GNHISYYQSDG [CACNA1C_Y1757_V1755I] | 2.32 |
| PPKFFDTRKLL [CYBB_Y41_Y41D] | 0.92 |
| TVSQPYSFIEF [SEC22B_Y110_R108Q] | 9.41 |
| RSSGGYEPRGC [FUS_Y239_R244C] | 0.509 |
| KIVFVYVKKRS [DNAI2_Y7_E2K_YF] | 0.856 |
| EWLRRYLENGK [HLA-A_Y195] | 0.522 |
| TMKSRYMELFD [BBS2_Y644_YF] | 4.89 |
| GENTMYAQVFN [LY9_Y603] | 1.84 |
| IMAFFYMCDRA [CASD1_Y382_YF] | 0.641 |
| PSTYRYERGSR [INPPL1_Y663_P659S] | 0.495 |
| CTTIHYNFKCN [TP53_Y234_M237K_YF] | 1.23 |
| GSERDYTYEEL [EIF2S2_Y174] | 0.944 |
| RLGLQYSQGLV [EIF2B4_Y214] | 0.452 |
| ISNATYKQIGL [FLT1_Y199_E201Q] | 0.481 |
| NTQRPHYKGGG [TYROBP_Y111_Y111H] | 1.01 |
| TSFSGYRFHRH [NKAPL_Y94_YF] | 0.942 |
| IEPGIYIPEDD [XPNPEP3_Y455] | 0.454 |
| WYQTKYEELQV [KRT6B_Y360_I365V] | 6.2 |
| LPKEQYLFTKE [AFG3L2_Y614_YF] | 0.762 |
| EQYELHCEMGS [CBL_Y371_Y371H] | 0.611 |
| ERLLDYTRTVQ [INPP5E_Y439] | 0.39 |
| KAVLHYKHQNQ [MTOR_Y1804_E1799K] | 0.861 |
| LYEDCYLLGTS [ASS1_Y87_R86C] | 0.962 |
| IHFPPYTDWNQ [ALDH3B2_Y365_YF] | 0.821 |
| FFRDGHMPRQF [GSS_Y270_Y270H_YF] | 0.494 |
| ARAHKYHGGGG [HBB_Y146_L142R] | 0.902 |
| RHTRSYDFTEG [FGF7_Y56_M59T_YF] | 0.427 |
| RGVTRYIFNRE [HLA-DQB1_Y62_Y58G_YF] | 0.494 |
| VSFGEYRFRSV [CFTR_Y515_D513G_YF] | 0.528 |
| GQLIVYAPPEW [CNTN6_Y315_F314V] | 0.53 |
| PGPPGYCDSSQ [COL12A1_Y3043] | 0.603 |
| PVQAAYPKVVA [HBB_Y131_Q132P] | 0.386 |
| GVRLYYRVMES [RB1_Y454] | 0.973 |
| FLNSSYINIST [IL23R_Y178_T175N_YF] | 4.35 |
| GSRGKYSSGFC [ATM_Y332_R337C] | 0.938 |
| EKSREYDRLFE [PIK3R1_Y463_YF] | 13.5 |
| PLGVLYKVKVY [PTS_Y128_V124L] | 0.484 |
| TIQRMYGCDVG [HLA-A_Y123_I121R] | 0.479 |
| CTTIQYNFMCN [TP53_Y234_H233Q_YF] | 1.87 |
| ITQRAYRRHLL [SCN1A_Y1926_I1922T] | 0.404 |
| LIFVSYDDWDF [GRIN2A_Y281_S278F_YF] | 1.01 |
| GVSYIYTIDGS [DCX_Y105_R102S] | 0.726 |
| REEKNYKHKET [BCLAF1_Y459_L461H] | 0.624 |
| PSPMPYACCQM [FOXL2_Y215_S217C] | 1.32 |
| LFEDCYLLGTS [ASS1_Y87_R86C_YF] | 0.647 |
